- System: S. cerevisiae SK1 pCDA2-eGFP (USY613), sporulating;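 also: active if sensitivity score above 5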
- ASSAY_OVERVIEW: CDA2-GFP sporulation assay sensitivity score (z-score vs DMSO controls); higher = stronger inhibition of sporulation, active = hit call of the paper
Hi there, I'd appreciate the recorded CDA2-GFP sporulation assay sensitivity score for every entry that follows.

Request: Would you mind telling me what CDA2-GFP sporulation assay sensitivity score value was observed for CC(C)(C#N)c1cc(Cn2cncn2)cc(C(C)(C)C#N)c1 [Anastrozole] (stock concentration (mM, diluted 1:100): 10) ?
Result: 3.64 (inactive)

Request: Entry under review: CC(Cc1ccccc1)(NC(=O)CN)c1ccccc1 (stereo not given) [Remacemide] (stock concentration (mM, diluted 1:100): 10) . Reported CDA2-GFP sporulation assay sensitivity score?
Result: 2.76 (inactive)

Request: CDA2-GFP sporulation assay sensitivity score lookup needed for C[C@H]1O[C@H](O[C@H]2[C@H](O)[C@@H](O)[C@@H](O[C@H]3[C@H](O)[C@@H](O)C(O)O[C@@H]3CO)O[C@@H]2CO)[C@H](O)[C@@H](O)[C@@H]1N[C@H]1C=C(CO)[C@@H](O)[C@H](O)[C@H]1O (stereo not given in full) [Acarbose] (stock concentration (mM, diluted 1:100): 10) , thanks.
Result: 0.28 (inactive)

Request: What measured CDA2-GFP sporulation assay sensitivity score goes with O=C(O)COCCN1CCN([C@H](c2ccccc2)c2ccc(Cl)cc2)CC1 [Levocetirizine] (stock concentration (mM, diluted 1:100): 10.7) ?
Result: -2.92 (inactive)

Request: # query: CDA2-GFP sporulation assay sensitivity score of entry Nc1nc(Cl)nc2c1ncn2[C@H]1C[C@H](O)[C@@H](CO)O1 [2-Chloro-2-Deoxyadenosine] (stock concentration (mM, diluted 1:100): 10)
Result: 1.98 (inactive)

* * *

- Tested on: S. cerevisiae AD1-9 (efflux-pump deficient), vegetative growth in YPD
- ASSAY_OVERVIEW: growth sensitivity score (doubling time z-score vs DMSO controls); higher = slower growth, strongly negative scores also mark growth inhibition (complete suppression), active = hit call of the paper
Thanks in advance; please answer with one of these: 1 for active, 0 for inactive

Request: Please indicate how the test categorized O=C1c2c(O)cc(O)cc2OC(c2ccc(O)c(O)c2)C1O (stereo not drawn) [Taxifolin] (stock concentration (mM, diluted 1:100): 10.1) .
Result: 0

Request: Hey, what did the test say about COc1ccc(C2CNC(=O)C2)cc1OC1CCCC1 (stereo not drawn) [Rolipram] (stock concentration (mM, diluted 1:100): 10) ?
Result: 0

Request: Please state the recorded outcome for this compound: C#C[C@]1(O)CC[C@H]2[C@@H]3[C@H](C)CC4=C(CCC(=O)C4)[C@H]3CC[C@@]21C [Tibolone] (stock concentration (mM, diluted 1:100): 10)
Result: 1

* * *

- System: S. cerevisiae AD1-9 (efflux-pump deficient), vegetative growth in YPD
- ASSAY_OVERVIEW: growth sensitivity score (doubling time z-score vs DMSO controls); higher = slower growth, strongly negative scores also mark growth inhibition (complete suppression), active = hit call of the paper
# output must be one of active, inactive

Request: What was the test verdict on CC(=O)SCC(Cc1ccccc1)C(=O)NCC(=O)OCc1ccccc1 (stereo not drawn) [Acetorphan] (stock concentration (mM, diluted 1:100): 10) ?
Result: active

Request: Please share the test call associated with CC1=Nc2ccc(Cl)cc2S(=O)(=O)N1 [Diazoxide] (stock concentration (mM, diluted 1:100): 10) .
Result: inactive

Request: // return assay outcome for COCCCC/C(=N\OCCN)c1ccc(C(F)(F)F)cc1 [Fluvoxamine] (stock concentration (mM, diluted 1:100): 7.7)
Result: active

* * *

- Test system: S. cerevisiae SK1 pCDA2-eGFP (USY613), sporulating;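 also: active if sensitivity score above 5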
- ASSAY_OVERVIEW: CDA2-GFP sporulation assay sensitivity score (z-score vs DMSO controls); higher = stronger inhibition of sporulation, active = hit call of the paper
Counter-ions that a name gives are not always drawn.
Your answer must be one of the following: active, inactive

Request: Name the outcome recorded for C[C@@H]1C[C@H]2[C@@H]3C[C@H](F)C4=CC(=O)C(Cl)=C[C@]4(C)[C@@]3(F)[C@@H](O)C[C@]2(C)[C@@]1(O)C(=O)CO [Halometasone monohydrate] (stock concentration (mM, diluted 1:100): 10) in the assay.
Result: inactive

Request: Could you check what this test reported for Nc1c2c(nc3ccccc13)CCCC2 [Tacrine hydrochloride] (stock concentration (mM, diluted 1:100): 9) ?
Result: active

Request: Please let me know the test result on file for CCN(CC)CC1CCCCN1CC(=O)N1c2ccccc2C(=O)Nc2cccnc21 (configuration not stated) [Otenzepad] (stock concentration (mM, diluted 1:100): 10) .
Result: inactive

Request: Per the assay record, what outcome was assigned to CN(C)CCCC1(c2ccc(F)cc2)OCc2cc(C#N)ccc21 (configuration not stated) [Citalopram hydrobromide] (stock concentration (mM, diluted 1:100): 7.9) ?
Result: inactive

Request: Field: outcome | Entry: C[C@H]1COc2c(N3CCN(C)CC3)c(F)cc3c(=O)c(C(=O)O)cn1c23 [Levofloxacin] (stock concentration (mM, diluted 1:100): 10)
Result: inactive

Request: What was the test verdict on Cc1ccnc2c1NC(=O)c1cccnc1N2C1CC1 [Viramune] (stock concentration (mM, diluted 1:100): 10) ?
Result: inactive

Request: Could you check what this test reported for O=C1c2c(O)cc(O)cc2OC(c2ccc(O)c(O)c2)C1O (configuration not stated) [Taxifolin] (stock concentration (mM, diluted 1:100): 10) ?
Result: inactive

Request: What call does the record list for COc1ccccc1OCC(O)CN1CCN(CC(=O)Nc2c(C)cccc2C)CC1 (configuration not stated) [Ranolazine dihydrochloride] (stock concentration (mM, diluted 1:100): 8.6) ?
Result: inactive

Request: Assay outcome for COc1cc(OC)c(C(=O)CCCN2CCCC2)c(OC)c1 [Buflomedil hydrochloride] (stock concentration (mM, diluted 1:100): 8.9) : what was it?
Result: inactive

Request: What is the recorded call for this compound in the test? Cc1c(C(=O)NN2CCCCC2)nn(-c2ccc(Cl)cc2Cl)c1-c1ccc(I)cc1 (stock concentration (mM, diluted 1:100): 10)
Result: inactive

Request: What classification did COC(=O)CCc1ccc(OCC(O)CNC(C)C)cc1 (configuration not stated) [Esmolol hydrochloride] (stock concentration (mM, diluted 1:100): 9) end up with in this test?
Result: inactive

Request: Test call for this compound, please: CN(C)CCCSc1ccccc1NC(=O)/C=C/c1ccccc1 [Cinanserin] (stock concentration (mM, diluted 1:100): 10)
Result: inactive

* * *

- Tested on: S. cerevisiae BY4741 (wild-type), vegetative growth in YPD
- ASSAY_OVERVIEW: growth sensitivity score (doubling time z-score vs DMSO controls); higher = slower growth, strongly negative scores also mark growth inhibition (complete suppression), active = hit call of the paper
Counter-ions that a name gives are not always drawn.
METRIC: growth sensitivity score

Request: Entry N[C@@H](C(=O)N[C@@H]1C(=O)N2C(C(=O)O)=C(CSc3cn[nH]n3)CS[C@H]12)c1ccc(O)cc1 [Seapuron] (stock concentration (mM, diluted 1:100): 8.6) has what growth sensitivity score?
Result: -0.6 (inactive)

Request: So what's the measured growth sensitivity score for this one? CN(C)CCN(Cc1ccccc1)c1ccccn1 [Tripelennamine hydrochloride] (stock concentration (mM, diluted 1:100): 10)
Result: 1.04 (inactive)

Request: Look up growth sensitivity score for this compound: CCn1cc(C(=O)O)c(=O)c2cc(F)c(N3CCN(C)CC3)cc21 [Pefloxacin mesylate] (stock concentration (mM, diluted 1:100): 7.9)
Result: -1.1 (inactive)

Request: Param item = CC(C)NCC(O)COc1ccc(CCOCC2CC2)cc1 (stereo not drawn) [Betaxolol hydrochloride] (stock concentration (mM, diluted 1:100): 10) ; retrieve measured growth sensitivity score.
Result: 0.42 (inactive)

Request: Form field: reported growth sensitivity score of CCCCc1oc2ccccc2c1C(=O)c1cc(I)c(OCCN(CC)CC)c(I)c1 [Amiodarone hydrochloride] (stock concentration (mM, diluted 1:100): 9.5)
Result: 126 (active)

Request: State the recorded growth sensitivity score for this entry: COCCCC/C(=N\OCCN)c1ccc(C(F)(F)F)cc1 [Fluvoxamine] (stock concentration (mM, diluted 1:100): 7.7)
Result: 2.43 (active)

Request: Given the entry CCCc1nc(C)c2c(=O)nc(-c3cc(S(=O)(=O)N4CCN(CC)CC4)ccc3OCC)[nH]n12 [Vardenafil citrate] (stock concentration (mM, diluted 1:100): 7.2) , report its measured growth sensitivity score.
Result: -0.19 (inactive)

Request: Need growth sensitivity score of COc1ccc2[nH]c([S+]([O-])Cc3ncc(C)c(OC)c3C)nc2c1 (stereo not drawn) [Omeprazole] (stock concentration (mM, diluted 1:100): 10) , thanks.
Result: 0.39 (inactive)

Request: Param item = Clc1ccc2c(c1)CCc1cccnc1C2=C1CCNCC1 [Desloratadine] (stock concentration (mM, diluted 1:100): 10) ; retrieve measured growth sensitivity score.
Result: -0.47 (inactive)

Request: Which value of growth sensitivity score has been reported for COc1cc(C(=O)NC2CCCNC2)cc(OC)c1OC (stereo not drawn) [Troxipide] (stock concentration (mM, diluted 1:100): 10.1) in the records?
Result: 0.38 (inactive)

Request: Returns the measured growth sensitivity score for the input compound. Input: CCN1CCN(c2cc3c(cc2F)c(=O)c(C(=O)O)cn3C2CC2)CC1 [Enrofloxacin] (stock concentration (mM, diluted 1:100): 10)
Result: 3.15 (active)

Request: Any idea what its growth sensitivity score is? The compound is CN(C)CCC(c1ccc(Cl)cc1)c1ccccn1 (stereo not drawn) [Chlorpheniramine] (stock concentration (mM, diluted 1:100): 10)
Result: -0.56 (inactive)

Request: Need growth sensitivity score, item Nc1c2c(nc3c1CCC3)CCCC2 [Amiridine] (stock concentration (mM, diluted 1:100): 10)
Result: 4.93 (active)

Request: Looking for the measured growth sensitivity score of CNCCCC12CCC(c3ccccc31)c1ccccc12 [Maprotilline hydrochloride] (stock concentration (mM, diluted 1:100): 10) , can you help?
Result: 2.3 (active)

Request: For the compound CCc1nn(CCCN2CCN(c3cccc(Cl)c3)CC2)c(=O)n1CCOc1ccccc1 [Nefazodone] (stock concentration (mM, diluted 1:100): 9.3) , what growth sensitivity score is on record?
Result: 9.68 (active)

Request: Record request: growth sensitivity score value, item CCN1CCC[C@H]1CNC(=O)c1c(O)c(Cl)cc(Cl)c1OC [Raclopride] (stock concentration (mM, diluted 1:100): 10)
Result: 0.66 (inactive)

Request: For the compound CN(C)CC/C=C1/c2ccccc2COc2ccc(CC(=O)O)cc21 [Olopatadine hydrochloride] (stock concentration (mM, diluted 1:100): 12.7) , what growth sensitivity score is on record?
Result: -0.74 (inactive)

Request: Give the measured growth sensitivity score of CC(C)(O)c1ccccc1CC[C@@H](SCC1(CC(=O)O)CC1)c1cccc(/C=C/c2ccc3ccc(Cl)cc3n2)c1 [Montelukast] (stock concentration (mM, diluted 1:100): 9.6) .
Result: -1.05 (inactive)

Request: Which growth sensitivity score is listed for O=C(O[C@H]1[C@H](Oc2ccccc2COC(=O)C2(O)C=CCCC2=O)O[C@H](CO)[C@@H](O)[C@@H]1O)c1ccccc1 (stereo partly drawn) [Tremulacin] (stock concentration (mM, diluted 1:100): 10) ?
Result: -0.72 (inactive)

Request: // growth sensitivity score lookup, key: CN1CCC(=C2c3ccccc3CCc3sccc32)CC1 [Pizotyline] (stock concentration (mM, diluted 1:100): 10)
Result: 5.7 (active)

Request: Record request: growth sensitivity score value, item CC[C@@]1(O)C(=O)OCc2c1cc1n(c2=O)Cc2cc3c(CN(C)C)c(O)ccc3nc2-1 [Topotecan hydrochloride] (stock concentration (mM, diluted 1:100): 9.2)
Result: -1.34 (inactive)

Request: Requested field: growth sensitivity score. Item: Cc1c(O)c(=O)ccn1C [Deferiprone] (stock concentration (mM, diluted 1:100): 10)
Result: 0.2 (inactive)

Request: Entry Fc1ccc([C@@H]2CCNC[C@H]2COc2ccc3c(c2)OCO3)cc1 [Paroxetine] (stock concentration (mM, diluted 1:100): 8.8) has what growth sensitivity score?
Result: 1.33 (inactive)
